Here, each record is paired with measured Content after 18 months data.
assay: Chemical stability study: vitamin contents on storage at 20 °C/ambient RH; type: physicochemical; conditions: Example 4 syrup, batch 2, 20 °C/ambient RH

The examples below pair each entry with its known result.
>  <molecule>
CC1=C(/C=C/C(C)=C/C=C/C(C)=C/C=C/C=C(C)/C=C/C=C(C)/C=C/C2=C(C)CCCC2(C)C)C(C)(C)CCC1

>  <Content after 18 months>
2279 IU/5 ml

$$$$
>  <molecule>
Cc1ncc(CO)c(CO)c1O

>  <Content after 18 months>
0.88 mg/5 ml

$$$$

What measured Content after 18 months goes with Cc1c(C)c2c(c(C)c1O)CC[C@@](C)(CCC[C@H](C)CCC[C@H](C)CCCC(C)C)O2 ?
11.9 IU/5 ml

// Content after 18 months lookup, key: NC(=O)c1cccnc1 [Nicotinamide]
18.4 mg/5 ml

# get_value(readout='Content after 18 months', item= [Zn] )
8.2 mg/5 ml

Query (molecule): Cc1ncc(C[n+]2csc(CCO)c2C)c(N)n1 ; field requested: Content after 18 months
1.16, 1.16 mg/5 ml

* * *

assay: Chemical stability study: vitamin contents on storage at 20 °C/ambient RH; format: physicochemical; conditions: Example 1 syrup, production batch 2, time 0
metric: Initial vitamin content (mg/10 ml)

Worked examples follow.
>  <molecule>
Cc1c(C)c2c(c(C)c1O)CC[C@@](C)(CCC[C@H](C)CCC[C@H](C)CCCC(C)C)O2 [D-α-tocopherol]

>  <Initial vitamin content (mg/10 ml)>
6.3

$$$$
>  <molecule>
NC(=O)c1cccnc1 [Nicotinamide]

>  <Initial vitamin content (mg/10 ml)>
12.3

$$$$
>  <molecule>
O=C1O[C@H]([C@@H](O)CO)C(O)=C1O [Ascorbic acid]

>  <Initial vitamin content (mg/10 ml)>
55.3

$$$$
>  <molecule>
Cc1cc2nc3c(=O)[nH]c(=O)nc-3n(C[C@H](O)[C@H](O)[C@H](O)CO)c2cc1C [Riboflavine]

>  <Initial vitamin content (mg/10 ml)>
1.06

$$$$
>  <molecule>
Cc1ncc(CO)c(CO)c1O [Pyridoxine]

>  <Initial vitamin content (mg/10 ml)>
1.22

$$$$

a: Cc1ncc(C[n+]2csc(CCO)c2C)c(N)n1 [Thiamine]
b: CC(C)(CO)[C@@H](O)C(=O)NCCC(=O)O [Pantothenic acid]
// which entry reports the smaller Initial vitamin content, a or b ? Use the label to indicate which entry you chose.
a
(a: 0.97 mg/10 ml, b: 4.4 mg/10 ml)

* * *

assay: Chemical stability study: vitamin contents on storage at 20 °C/ambient RH; format: physicochemical; details: Example 1 syrup, 18 months at 20 °C/ambient RH; '+' = increase
metric: Degraded (%)

Known results for compounds:
>  <compound>
NC(=O)c1cccnc1 [Nicotinamide]

>  <scale.unit>
%

>  <Degraded>
4

$$$$
>  <compound>
C=C1CC[C@H](O)C/C1=C/C=C1\CCC[C@]2(C)[C@@H]([C@H](C)CCCC(C)C)CC[C@@H]12 [Cholecalciferol]

>  <scale.unit>
%

>  <Degraded>
10

$$$$
>  <compound>
Cc1ncc(C[n+]2csc(CCO)c2C)c(N)n1 [Thiamine]

>  <scale.unit>
%

>  <Degraded>
8

$$$$
>  <compound>
CC(C)(CO)[C@@H](O)C(=O)NCCC(=O)O [Pantothenic acid]

>  <scale.unit>
%

>  <Degraded>
16

$$$$
>  <compound>
Nc1nc2ncc(CNc3ccc(C(=O)N[C@@H](CCC(=O)O)C(=O)O)cc3)nc2c(=O)[nH]1 [Folic acid]

>  <scale.unit>
%

>  <Degraded>
21

$$$$
>  <compound>
CC1=C(/C=C/C(C)=C/C=C/C(C)=C/CO)C(C)(C)CCC1 [Retinol]

>  <scale.unit>
%

>  <Degraded>
16

$$$$

a: O=C1O[C@H]([C@@H](O)CO)C(O)=C1O [Ascorbic acid]
b: Cc1c(C)c2c(c(C)c1O)CC[C@@](C)(CCC[C@H](C)CCC[C@H](C)CCCC(C)C)O2 [D-α-tocopherol]
// task: argmin of Degraded over [ a , b ] Which one? Tell me its label.
b

* * *

assay: Chemical stability study: vitamin contents on storage at 20 °C/ambient RH; assay type: physicochemical; conditions: Example 1 syrup, two batches
metric: Recovery (initial versus nominal) (%)

>  <compound>
O=C1O[C@H]([C@@H](O)CO)C(O)=C1O

>  <scale.unit>
%

>  <data.value>
97.4

$$$$
>  <compound>
Cc1c(C)c2c(c(C)c1O)CC[C@@](C)(CCC[C@H](C)CCC[C@H](C)CCCC(C)C)O2

>  <scale.unit>
%

>  <data.value>
99.2

$$$$
>  <compound>
CC1=C(/C=C/C(C)=C/C=C/C(C)=C/CO)C(C)(C)CCC1

>  <scale.unit>
%

>  <data.value>
113

$$$$
>  <compound>
CC(C)(CO)[C@@H](O)C(=O)NCCC(=O)O

>  <scale.unit>
%

>  <data.value>
98.9

$$$$
>  <compound>
Cc1ncc(CO)c(CO)c1O

>  <scale.unit>
%

>  <data.value>
96.4

$$$$
>  <compound>
Cc1cc2nc3c(=O)[nH]c(=O)nc-3n(C[C@H](O)[C@H](O)[C@H](O)CO)c2cc1C

>  <scale.unit>
%

>  <data.value>
95.9

$$$$
>  <compound>
NC(=O)c1cccnc1 [Nicotinamide]

>  <scale.unit>
%

>  <data.value>
97.2

$$$$
>  <compound>
Cc1ncc(C[n+]2csc(CCO)c2C)c(N)n1

>  <scale.unit>
%

>  <data.value>
97.5

$$$$
>  <compound>
Nc1nc2ncc(CNc3ccc(C(=O)N[C@@H](CCC(=O)O)C(=O)O)cc3)nc2c(=O)[nH]1

>  <scale.unit>
%

>  <data.value>
102.4

$$$$
>  <compound>
C=C1CC[C@H](O)C/C1=C/C=C1\CCC[C@]2(C)[C@@H]([C@H](C)CCCC(C)C)CC[C@@H]12

>  <scale.unit>
%

>  <data.value>
97.6

$$$$

* * *

experiment: Chemical stability study: vitamin contents on storage at 20 °C/ambient RH; assay type: physicochemical; details: Example 1 syrup, batch 2, 20 °C/ambient RH
metric: Vitamin content after 18 months (mg/10 ml)

Solved cases below.
>  <molecule>
NC(=O)c1cccnc1 [Nicotinamide]

>  <data.value>
11.9

$$$$
>  <molecule>
Cc1ncc(CO)c(CO)c1O

>  <data.value>
1.24

$$$$
>  <molecule>
Cc1ncc(C[n+]2csc(CCO)c2C)c(N)n1

>  <data.value>
0.89

$$$$

I: Cc1cc2nc3c(=O)[nH]c(=O)nc-3n(C[C@H](O)[C@H](O)[C@H](O)CO)c2cc1C
II: Cc1c(C)c2c(c(C)c1O)CC[C@@](C)(CCC[C@H](C)CCC[C@H](C)CCCC(C)C)O2
III: O=C1O[C@H]([C@@H](O)CO)C(O)=C1O
Arrange the 3 molecules from largest to smallest Vitamin content after 18 months. Your task in answering is to list the labels in the requested order.
III, II, I

* * *

assay: Chemical stability study: vitamin contents on storage at 20 °C/ambient RH; assay type: physicochemical; conditions: Example 1 syrup, batch 1, 20 °C/ambient RH
metric: Vitamin content after 18 months

Query (compound): CC1=C(/C=C/C(C)=C/C=C/C(C)=C/CO)C(C)(C)CCC1 [Retinol] ; field requested: Vitamin content after 18 months
518 μg/10 ml

# lookup: Vitamin content after 18 months of C=C1CC[C@H](O)C/C1=C/C=C1\CCC[C@]2(C)[C@@H]([C@H](C)CCCC(C)C)CC[C@@H]12 [Cholecalciferol]
7.3, 7.3 μg/10 ml

What value of measured Vitamin content after 18 months is listed for CC(C)(CO)[C@@H](O)C(=O)NCCC(=O)O [Pantothenic acid] ?
3.6, 3.6 mg/10 ml

* * *

assay: Chemical stability study: vitamin contents on storage at 20 °C/ambient RH; format: physicochemical; settings: Example 4 syrup, batch 1, 20 °C/ambient RH
metric: Content after 18 months

>  <compound>
CC1=C(/C=C/C(C)=C/C=C/C(C)=C/CO)C(C)(C)CCC1

>  <Content after 18 months>
1869 IU/5 ml

$$$$
>  <compound>
C=C1CC[C@H](O)C/C1=C/C=C1\CCC[C@]2(C)[C@@H]([C@H](C)CCCC(C)C)CC[C@@H]12

>  <Content after 18 months>
519 IU/5 ml

$$$$
>  <compound>
NC(=O)c1cccnc1 [Nicotinamide]

>  <Content after 18 months>
18.5 mg/5 ml

$$$$

Would you kindly share the measured Content after 18 months for Cc1ncc(CO)c(CO)c1O ?
0.89 mg/5 ml

Quick check: Content after 18 months of Cc1cc2nc3c(=O)[nH]c(=O)nc-3n(C[C@H](O)[C@H](O)[C@H](O)CO)c2cc1C ?
1.19, 1.19 mg/5 ml

Fill in: Content after 18 months of O=C(O)CCCC[C@@H]1SC[C@@H]2NC(=O)N[C@@H]21 is ___
103 μg/5 ml

Consider the compound Nc1nc2ncc(CNc3ccc(C(=O)N[C@@H](CCC(=O)O)C(=O)O)cc3)nc2c(=O)[nH]1 and give its measured Content after 18 months.
255 μg/5 ml

Each recorded value in this set is attributed to patent US20040043043A1.
